- PROTOCOL: binders of probe aFST on microarray, primary screen, stem cell growth factor project, biochemical, small-molecule microarray, fluorescence 635/667 (AID 1086);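 further: score merges 667 nm fluorescence with signal-to-noise of each printed compound spot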
- CONDITION: higher = more signal
For each of the compounds below, state its composite z-score.
Answers are plain numbers.

1. CN(C)C(=O)[C@@]1(Cc2ccccc2N=[N+]=[N-])COC(c2ccc(OCCCO)cc2)=N1    0.495
2. CCOC(=O)[C@H]1C/C=C/C[C@H](C(=O)OCC)C(=O)O[C@H]2[C@@H](OC)O[C@H](CO)[C@@H](OC(=O)CCc3ccccc3)[C@@H]2OC1=O    -0.555
3. COc1cc2c(cc1OC)CN(C(=O)[C@H]1[C@@H]3C(=O)O[C@@H](c4ccccc4)[C@@H](c4ccccc4)N3[C@@H](c3ccc(OCCO)cc3)[C@]13C(=O)Nc1ccc(C#CC4(O)CCCCCC4)cc13)CC2    1.6
4. COc1ccc(C(O)C2C=CC3C(=O)N(c4ccccc4)C(=O)C3N2Nc2ccccc2)cc1OCc1ccccc1 (configuration not stated)    1.64
5. COc1ccc(NC(=O)O[C@H]2[C@H](OC(=O)Nc3ccc4c(c3)OCO4)[C@@H](OC(=O)Nc3ccc4c(c3)OCO4)[C@@H](OC)O[C@@H]2CO)cc1    0.4

Working through the 2 compounds below one at a time, give composite z-score for each.
1. Cc1ccc(S[C@]2(C(=O)NCc3ccccc3)CC(=O)N(C(C)C)[C@@H]2c2ccc(CO)cc2I)cc1
2. CCCCN1CC=CC23O[C@@H]4/C=C\CCC(C)OC(=O)C4[C@H]2C(=O)N(CCCCCCO)[C@@H]3C1=O (some centres not stated)

Output line:
[0.03, -0.213]

---

- PROTOCOL: S. cerevisiae growth modulation with rapamycin, primary screen, strain BY4716, OD600, 96 h (AID 1091); further: test concentration not given here
- CONDITION: higher = more signal, called active from +8 up or from −8 down
# binarize z-score: threshold 0.02 inclusive, high side 1.0, low side 0.0

Known results for compounds:
1) CC(C)N1CC=CC23O[C@@H]4C=CCCOC(=O)C4[C@H]2C(=O)N(CCO)[C@@H]3C1=O (some centres not stated)    0.0
2) CC(C)C[C@@H]1NC(=O)[C@H]2C[C@@H](C(=O)NCCCCCC[N+](C)(C)C)[C@@H](c3cccc(OCCO)c3)N2C1=O    0.0

Input line: Can `[N-]=[N+]=NCc1ccccc1C[C@@]1(C(=O)NCCN2CCOCC2)N=C(c2ccc(OCCCO)cc2)O[C@@H]1c1ccccc1N=[N+]=[N-]` be said to have z-score at or above 0.02?
Output line: 1.0

Input line: Can COC(=O)C1(Cc2ccccc2)C=C2C(=C(c3ccccc3)C(=O)C2C)CN1 (configuration not stated) be said to have z-score at or above 0.02?
Output line: 1.0

Input line: Can `COC(=O)[C@@]1(Cc2ccccc2)[C@H]2c3cc(C(=O)N4CCCC4)n(C[C@H](O)CO)c3C[C@H]2CN1C(=O)c1ccccc1` be said to have z-score at or above 0.02?
Output line: 0.0

Input line: Can `COC(=O)[C@@]1(Cc2ccccc2)[C@H]2c3cc(C(=O)N4CCCC4)[nH]c3C[C@H]2CN1C(=O)c1ccccc1` be said to have z-score at or above 0.02?
Output line: 1.0

Input line: Can `COCCOC(=O)N1C(=O)[C@@]2(c3cc(C#Cc4ccc(OC)cc4)ccc31)[C@H](C(=O)N1CCCCCCC1)[C@H]1C(=O)O[C@H](c3ccccc3)[C@H](c3ccccc3)N1[C@@H]2c1ccc(O)cc1` be said to have z-score at or above 0.02?
Output line: 1.0
